Origin of values: paper PMC10385664

system: P-gp; test: Caco-2 permeability assay (pH 6.5/7.4 gradient, ± elacridar); settings: human, Caco-2, Papp(B⟹A) + inhibitor, Caco-2, with P-gp inhibitor elacridar 10 µM
reported.metric: Papp at 120 min, 10 µM (×10⁻⁶ cm/s)
Hi! Could you send only the number? It should be in ×10⁻⁶ cm/s, unit omitted.

Query: // fetch Papp at 120 min, 10 µM for Cc1ncc(OC[C@@]2(c3cccc(F)c3)C[C@H]2C(=O)Nc2ccc(F)cn2)c(C)n1 [Lemborexant, lemborexant] ; system: P-gp
Reply: 39

----------
test: Shake-flask equilibrium solubility in FaSSIF V1; format: physicochemical; conditions: pH 6.5; Excel template input, FaSSIF V1; read-out: Estimate of intestinal solubility (CS)
reported.metric: solubility at 24 h
Param answer (str): number followed by unit.

Query: Recall and state the measured solubility at 24 h for "C[C@@H](c1ncncc1F)[C@](O)(Cn1cncn1)c1ccc(F)cc1F" .
Reply: 827 µg/mL

----------
test: Shake-flask equilibrium solubility in FaSSIF V1; assay type: physicochemical; conditions: pH 6.5, thermodynamic from solid; FaSSIF V1, pH 6.50 ± 0.05, 37 °C; read-out: CS FaSSIF V1 (thermodynamic solubility)
reported.metric: solubility thermodynamic at 24 h (µg/mL)
Hi! Could you send only the number? It should be in µg/mL, unit omitted.

Answered examples (2):
C[C@@H](c1ncncc1F)[C@](O)(Cn1cncn1)c1ccc(F)cc1F    827
Cc1ncc(OC[C@@]2(c3cccc(F)c3)C[C@H]2C(=O)Nc2ccc(F)cn2)c(C)n1    23.3

Please examine the following record next.
Query: Recall and state the measured solubility thermodynamic at 24 h for "CCn1c(=O)c2c(nc(/C=C/c3ccc(OC)c(OC)c3)n2C)n(CC)c1=O" .
Reply: 3.59

----------
tested on: P-gp; experiment: Caco-2 permeability assay (pH 6.5/7.4 gradient, ± elacridar); conditions: human, Caco-2, with elacridar 10 µM, Papp(B⟹A) + inhibitor, Caco-2, with P-gp inhibitor elacridar 10 µM
reported.metric: Papp at 120 min, 10 µM (×10⁻⁶ cm/s)
Hi! Could you send only the number? It should be in ×10⁻⁶ cm/s, unit omitted.

CCn1c(=O)c2c(nc(/C=C/c3ccc(OC)c(OC)c3)n2C)n(CC)c1=O    43.7

Please examine the following record next.
Query: Recall and state the measured Papp at 120 min, 10 µM for "C[C@@H](c1ncncc1F)[C@](O)(Cn1cncn1)c1ccc(F)cc1F" .
Reply: 40.4

----------
assay: Shake-flask n-octanol/water logDpH7.4 with HPLC-UV; type: physicochemical; details: octanol / 0.01 M phosphate buffer pH 7.4, 25 °C
We begin with a simple list: items and their reported logD at 4 h.
Keep the answer to the number alone.

Answered examples (2):
C[C@@H](c1ncncc1F)[C@](O)(Cn1cncn1)c1ccc(F)cc1F    1.66
CCn1c(=O)c2c(nc(/C=C/c3ccc(OC)c(OC)c3)n2C)n(CC)c1=O    2.96

Please examine the following record next.
Query: Recall and state the measured logD at 4 h for "Cc1ncc(OC[C@@]2(c3cccc(F)c3)C[C@H]2C(=O)Nc2ccc(F)cn2)c(C)n1" .
Reply: 3.04

----------
assay: Caco-2 permeability assay (pH 6.5/7.4 gradient, ± elacridar); details: human, Caco-2, Papp(A⟹B), Caco-2, 10 µM, apical pH 6.5 / basolateral pH 7.4, 120 min, without inhibitor
We begin with a simple list: items and their reported Papp at 120 min, 10 µM.

Answered examples (2):
C[C@@H](c1ncncc1F)[C@](O)(Cn1cncn1)c1ccc(F)cc1F    27.3 ×10⁻⁶ cm/s
Cc1ncc(OC[C@@]2(c3cccc(F)c3)C[C@H]2C(=O)Nc2ccc(F)cn2)c(C)n1    26.7 ×10⁻⁶ cm/s

Please examine the following record next.
Query: Recall and state the measured Papp at 120 min, 10 µM for "CCn1c(=O)c2c(nc(/C=C/c3ccc(OC)c(OC)c3)n2C)n(CC)c1=O" .
Reply: 30.2 ×10⁻⁶ cm/s

----------
assay: pKa by Fast UV spectrometric titration (SiriusT3); assay type: physicochemical; conditions: water/methanol mixtures; Yasuda–Shedlovsky extrapolation from water/methanol titrations, 25 °C; low absorbance, value to be treated with caution
reported.metric: pKa
Keep the answer to the number alone.

Query: Recall and state the measured pKa for Cc1ncc(OC[C@@]2(c3cccc(F)c3)C[C@H]2C(=O)Nc2ccc(F)cn2)c(C)n1 [Lemborexant, lemborexant] .
Reply: 2.18

----------
Test system: P-gp
Test: Caco-2 permeability assay (pH 6.5/7.4 gradient, ± elacridar)
Details: human, Caco-2, with elacridar 10 µM, Papp(A⟹B) + inhibitor, Caco-2, with P-gp inhibitor elacridar 10 µM
Description: In vitro permeability studies were performed at Cyprotex Discovery Ltd. (Macclesfield, UK) using a high-throughput Caco-2 permeability assay. Permeability at 37 °C was assessed from the apical to basolateral side (A⟹B) and in opposite direction (B⟹A) applying a pH gradient with pH 6.5 in the apical and pH 7.4 in the basolateral compartment (Hanks Balanced Salt Solution, HBSS). […] In vitro permeability was assessed wit h a high‐throughput Caco‐2 permeability assay. […]
reported.metric: Papp at 120 min, 10 µM (×10⁻⁶ cm/s)
Hi! Could you send only the number? It should be in ×10⁻⁶ cm/s, unit omitted.

C[C@@H](c1ncncc1F)[C@](O)(Cn1cncn1)c1ccc(F)cc1F    24

Please examine the following record next.
Query: Recall and state the measured Papp at 120 min, 10 µM for "CCn1c(=O)c2c(nc(/C=C/c3ccc(OC)c(OC)c3)n2C)n(CC)c1=O" .
Reply: 31.2

----------
We begin with a simple list: items and their reported Papp at 120 min, 10 µM.
Assay: Caco-2 permeability assay (pH 6.5/7.4 gradient, ± elacridar)
Settings: human, Caco-2, Papp(B⟹A), Caco-2, without inhibitor
Experimental: In vitro permeability studies were performed at Cyprotex Discovery Ltd. (Macclesfield, UK) using a high-throughput Caco-2 permeability assay. Permeability at 37 °C was assessed from the apical to basolateral side (A⟹B) and in opposite direction (B⟹A) applying a pH gradient with pH 6.5 in the apical and pH 7.4 in the basolateral compartment (Hanks Balanced Salt Solution, HBSS). […] In vitro permeability was assessed wit h a high‐throughput Caco‐2 permeability assay. […]
Hi! Could you send only the number? It should be in ×10⁻⁶ cm/s, unit omitted.

CCn1c(=O)c2c(nc(/C=C/c3ccc(OC)c(OC)c3)n2C)n(CC)c1=O    28.3

Query: Recall and state the measured Papp at 120 min, 10 µM for "C[C@@H](c1ncncc1F)[C@](O)(Cn1cncn1)c1ccc(F)cc1F" .
Reply: 43.5

Query: Recall and state the measured Papp at 120 min, 10 µM for "Cc1ncc(OC[C@@]2(c3cccc(F)c3)C[C@H]2C(=O)Nc2ccc(F)cn2)c(C)n1" .
Reply: 41.8

----------
tested on: P-gp; experiment: Caco-2 permeability assay (pH 6.5/7.4 gradient, ± elacridar); settings: human, Caco-2, Papp(A⟹B) + inhibitor, Caco-2, with P-gp inhibitor elacridar 10 µM
reported.metric: Papp at 120 min, 10 µM (×10⁻⁶ cm/s)
Hi! Could you send only the number? It should be in ×10⁻⁶ cm/s, unit omitted.

Query: Recall and state the measured Papp at 120 min, 10 µM for "Cc1ncc(OC[C@@]2(c3cccc(F)c3)C[C@H]2C(=O)Nc2ccc(F)cn2)c(C)n1" .
Reply: 24.2
